- PROCEDURE_DETAILS: Assessment of Plasma Exposure in DBA/2J mice
- Type: in vivo, mouse
- EXPERIMENTAL_PARAMETERS: male, DBA/2J, mouse, plasma, po, 25 mg/kg, Group 2: 25 mg/kg PO, Vehicle 1; mouse plasma
PROPERTY_NAME: Cmax (ng/mL)
Respond with the bare value in ng/mL.

INPUT: Give recorded Cmax. COCCNc1nc(-c2nccn2C)nc2sc(-c3cccc(OC)c3Cl)c(-c3ccccc3)c12
OUTPUT: 703

====

- ASSAYED_SYSTEM: KRas Q61H mutant (Homo sapiens (Human), UniProt P01116, Q61H)
- Sequence (P01116 other isoform, or with tags, fused parts or gaps Q61H): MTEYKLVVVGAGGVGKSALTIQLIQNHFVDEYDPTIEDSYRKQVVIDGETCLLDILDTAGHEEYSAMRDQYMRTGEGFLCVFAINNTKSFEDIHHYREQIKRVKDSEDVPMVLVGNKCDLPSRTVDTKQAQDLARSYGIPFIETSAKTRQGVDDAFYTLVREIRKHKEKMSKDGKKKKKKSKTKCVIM
- PROCEDURE_DETAILS: Ras GTP Binding Domain Inhibition Assay, KRas Q61H mutant
- EXPERIMENTAL_PARAMETERS: 20 μM; without SOS; read-out: KRas Q61H mutant: % inh.
PROPERTY_NAME: inhibition at 20 µM

Answered cases to consult:
INPUT: Report measured inhibition at 20 µM; entry is COCCn1ccnc1-c1nc(N[C@H]2C[C@@H](OC)C2)c2c(-c3ccccc3)c(-c3ccn(C)n3)sc2n1 [Compound 13]
OUTPUT: 76 to 100%

INPUT: Kindly indicate its recorded inhibition at 20 µM. Item: COCC1(OC)CCN(c2nc(-c3nccn3C)nc3sc(-c4ccn(C(C)C)n4)c(C)c23)C1 (racemic) [Compound 27]
OUTPUT: 46 to 75%

INPUT: Supply measured inhibition at 20 µM of COCCOc1nc(-c2nccn2C)nc2sc(-c3ccn(C(C)C)n3)c(C)c12 [Compound 30] in your reply.
OUTPUT: 0%

---
INPUT: Provide inhibition at 20 µM value for the following compound: COCCn1ccc(-c2sc3nc(-c4nccn4C)nc(N[C@@H]4CC[C@H](OC)C4)c3c2C)n1 (racemic) [Compound 39]
OUTPUT: 76 to 100%

====

- ASSAYED_SYSTEM: UniProtKB P61586
- Sequence (P61586 whole entry, species assumed, the tested form may be a part): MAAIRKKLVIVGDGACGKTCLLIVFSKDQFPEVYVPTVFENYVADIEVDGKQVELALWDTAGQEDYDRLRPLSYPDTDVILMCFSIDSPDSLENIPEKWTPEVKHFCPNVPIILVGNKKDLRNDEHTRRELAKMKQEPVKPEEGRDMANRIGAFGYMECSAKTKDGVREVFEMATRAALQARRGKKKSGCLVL
- PROCEDURE_DETAILS: Ras GTP Binding Domain Inhibition Assay, Rho-A
- EXPERIMENTAL_PARAMETERS: without SOS, read-out: Rho-A: % inh.
inhibition at 20 µM for assorted molecules

Below, 5 molecules whose answers are already recorded.
INPUT: // Input: COc1nccc(-c2sc3nc(-c4nccn4C)nc(N[C@H]4C[C@H](OC)C4)c3c2-c2ccccc2)c1F . Output its inhibition at 20 µM only.
OUTPUT: 46 to 75%

INPUT: Could you please provide reported inhibition at 20 µM for COCCNc1nc(-c2nccn2C)nc2sc(-c3ccccc3)c(-c3ccccc3Cl)c12 ? Thanks!
OUTPUT: 26 to 45%

INPUT: Consider the molecule COCCO[C@H]1CC[C@@H](Nc2nc(-c3nccn3C)nc3sc(-c4ccn(C(C)C)n4)c(C)c23)C1 (racemic) and give its recorded inhibition at 20 µM.
OUTPUT: 46 to 75%

INPUT: Please supply the value of reported inhibition at 20 µM for the item COCCn1ccnc1-c1nc(N[C@H]2C[C@@H](OC)C2)c2c(-c3ccccc3)c(-c3ccn(C)n3)sc2n1
OUTPUT: 76 to 100%

INPUT: For COc1cc(Nc2nc(-c3nccn3C)nc3sc(-c4ccn(C(C)C)n4)c(C)c23)ncn1 , write its inhibition at 20 µM.
OUTPUT: 76 to 100%

Further cases:
INPUT: # return recorded inhibition at 20 µM for input COCCOCCNc1nc(-c2nccn2C)nc2sc(-c3ccn(C(C)C)n3)c(C)c12
OUTPUT: 76 to 100%

INPUT: Note down inhibition at 20 µM recorded for COC1CCCN(c2nc(-c3nccn3C)nc3sc(-c4ccn(C(C)C)n4)c(C)c23)C1 (racemic)
OUTPUT: 26 to 45%

INPUT: Provide only the value of recorded inhibition at 20 µM for Cc1c(-c2ccn(C(C)C)n2)sc2nc(-c3nccn3C)nc(NCCN3CCOCC3)c12
OUTPUT: 76 to 100%

INPUT: Find the measured inhibition at 20 µM of COc1cccc(-c2sc3nc(-c4nccn4C)nc(N[C@H]4C[C@H](OC)C4)c3c2C)c1F and report it.
OUTPUT: 46 to 75%

====

- ASSAYED_SYSTEM: UniProt:P01116
- PROCEDURE_DETAILS: Ras GTP Binding Domain Inhibition Assay, KRas wild type
- EXPERIMENTAL_PARAMETERS: without SOS, read-out: KRas wild type: % inh.
PROPERTY_NAME: inhibition at 20 µM

INPUT: Could you please provide reported inhibition at 20 µM for COCCNc1nc(-c2nccn2C)nc2sc(-c3cccc(OC)c3Cl)c(-c3ccccc3)c12 ? Thanks!
OUTPUT: 46 to 75%

INPUT: # return recorded inhibition at 20 µM for entry Cc1c(-c2ccn(C(C)C)n2)sc2nc(-c3nccn3C)nc(NCC3CCCO3)c12 (racemic)
OUTPUT: 76 to 100%

INPUT: Specify reported inhibition at 20 µM for the molecule shown: COCCCn1c(-c2nccn2C)nc2sc(-c3ccn(C(C)C)n3)c(-c3ccccc3)c2c1=O
OUTPUT: 1 to 25%

INPUT: Provide inhibition at 20 µM value for the following molecule: COCCCn1c(-c2nccn2C)nc2sc(-c3ccn(C(C)C)n3)c(C)c2c1=O
OUTPUT: 1 to 25%

====

- ASSAYED_SYSTEM: KRas G12D mutant (Homo sapiens (Human), UniProt P01116, G12D)
- Sequence (P01116 other isoform, or with tags, fused parts or gaps G12D): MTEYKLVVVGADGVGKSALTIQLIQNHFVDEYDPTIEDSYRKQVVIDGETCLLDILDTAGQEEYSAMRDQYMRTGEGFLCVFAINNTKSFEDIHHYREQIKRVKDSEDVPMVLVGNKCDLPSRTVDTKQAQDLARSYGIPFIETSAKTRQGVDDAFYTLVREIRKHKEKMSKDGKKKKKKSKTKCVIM
- PROCEDURE_DETAILS: Ras GTP Binding Domain Inhibition Assay, KRas G12D mutant
- EXPERIMENTAL_PARAMETERS: 20 uM; + SOS; Table 8
Entries annotated with measured KRas G12D mutant + SOS: % inh.

INPUT: Hello, please tell me recorded KRas G12D mutant + SOS: % inh. for this one: COCCCn1c(-c2nccn2C)nc2sc(-c3ccn(C(C)C)n3)c(-c3ccccc3)c2c1=O
OUTPUT: 0 (0 = 0% inhibition)

Let us move to another entry and its KRas G12D mutant + SOS: % inh..
INPUT: Fill in reported KRas G12D mutant + SOS: % inh. for this entry: COCCCCn1c(-c2nccn2C)nc2sc(-c3ccn(C(C)C)n3)c(C)c2c1=O
OUTPUT: 0 (0 = 0% inhibition)

====

- ASSAYED_SYSTEM: KRas G12D mutant (Homo sapiens (Human), UniProt P01116, G12D)
- PROCEDURE_DETAILS: Ras GTP Binding Domain Inhibition Assay, KRas G12D mutant
- EXPERIMENTAL_PARAMETERS: 20 μM; without SOS; Table 7; read-out: KRas G12D mutant: % inh.
PROPERTY_NAME: inhibition at 20 µM

INPUT: Specify reported inhibition at 20 µM for the compound shown: COc1cc(-c2sc3nc(-c4nccn4C)nc(N[C@H]4C[C@H](OC)C4)c3c2-c2ccccc2)ccn1
OUTPUT: 46 to 75%

Next:
INPUT: Tell me inhibition at 20 µM reported for COCCNc1nc(-c2nccn2C)nc2sc(-c3cccc(OC)c3Cl)c(-c3ccc(OC)cc3)c12
OUTPUT: 26 to 45%

INPUT: Answer with the recorded inhibition at 20 µM of COc1cc(Nc2nc(-c3nccn3C)nc3sc(-c4ccn(C(C)C)n4)c(C)c23)ncn1 only.
OUTPUT: 26 to 45%

INPUT: Read the entry COCC1CN(c2nc(-c3nccn3C)nc3sc(-c4ccn(C(C)C)n4)c(C)c23)CCO1 (racemic) and write its reported inhibition at 20 µM.
OUTPUT: 76 to 100%

INPUT: Answer with reported inhibition at 20 µM of COCCCOc1nc(-c2nccn2C)nc2sc(-c3ccn(C(C)C)n3)c(-c3ccccc3)c12
OUTPUT: 0%

INPUT: Return the recorded inhibition at 20 µM value; entry: Cc1c(-c2ccn(C(C)C)n2)sc2nc(-c3nccn3C)nc(NCCN3CCS(=O)(=O)CC3)c12
OUTPUT: 76 to 100%

INPUT: Supply reported inhibition at 20 µM belonging to this compound: COCCO[C@H]1CC[C@@H](Nc2nc(-c3nccn3C)nc3sc(-c4ccn(C(C)C)n4)c(C)c23)C1 (racemic)
OUTPUT: 76 to 100%

INPUT: Could you please provide reported inhibition at 20 µM for COc1cccc(Nc2nc(-c3nccn3C)nc3sc(-c4ccn(C(C)C)n4)c(C)c23)c1 ? Thanks!
OUTPUT: 46 to 75%

INPUT: Please supply the value of reported inhibition at 20 µM for the item CO[C@@H]1CC[C@H](Nc2nc(-c3nccn3C)nc3sc(-c4ccn(C(C)C)n4)c(-c4ccccc4)c23)C1 (single isomer, unassigned)
OUTPUT: 46 to 75%

====

- Test system: MiaPaca2
- PROCEDURE_DETAILS: MiaPaca2 proliferation
- Assay type: cell-based
- EXPERIMENTAL_PARAMETERS: Homo sapiens, MIA PaCa-2; 10 μM; read-out: % inh of proliferation in MiaPaca2
PROPERTY_NAME: inhibition at 10 µM

Recorded results for 5 molecules are shown here.
INPUT: Tell us which inhibition at 10 µM value is on record for Cc1c(-c2ccn(C(C)C)n2)sc2nc(-c3nccn3C)nc(NCCN3CCS(=O)(=O)CC3)c12
OUTPUT: 0%

INPUT: Specify reported inhibition at 10 µM for the molecule shown: COCCCCn1c(-c2nccn2C)nc2sc(-c3ccn(C(C)C)n3)c(C)c2c1=O
OUTPUT: 0%

INPUT: Please give measured inhibition at 10 µM of the following entry: COc1cccc(-c2sc3nc(-c4nccn4C)nc(N[C@@H]4CC[C@@H](OC)C4)c3c2-c2ccccc2)c1F (racemic)
OUTPUT: 76 to 100%

INPUT: Please indicate inhibition at 10 µM recorded for Cc1c(-c2ccn(C(C)C)n2)sc2nc(-c3nccn3C)nc(NCC3COCCN3C)c12 (racemic)
OUTPUT: 76 to 100%

INPUT: Let me know recorded inhibition at 10 µM for CO[C@H]1CNC[C@@H](Nc2nc(-c3nccn3C)nc3sc(-c4ccn(C(C)C)n4)cc23)C1 , thanks.
OUTPUT: 76 to 100%

Others:
INPUT: # return recorded inhibition at 10 µM for input COc1cccc(Nc2nc(-c3nccn3C)nc3sc(-c4ccn(C(C)C)n4)c(C)c23)c1
OUTPUT: 76 to 100%

INPUT: Please indicate inhibition at 10 µM recorded for COCCCn1c(-c2nccn2C)nc2sc(-c3ccn(C(C)C)n3)c(C)c2c1=O
OUTPUT: 0%

INPUT: In one line, give reported inhibition at 10 µM of the entry COCC1CN(c2nc(-c3nccn3C)nc3sc(-c4ccn(C(C)C)n4)c(C)c23)CCO1 (racemic) .
OUTPUT: 46 to 75%

INPUT: Could you please provide reported inhibition at 10 µM for COCC1(OC)CCN(c2nc(-c3nccn3C)nc3sc(-c4ccn(C(C)C)n4)c(C)c23)C1 (racemic) ? Thanks!
OUTPUT: 76 to 100%
